B1: library; a variant is named by its letters at N, in order (parent)
chain: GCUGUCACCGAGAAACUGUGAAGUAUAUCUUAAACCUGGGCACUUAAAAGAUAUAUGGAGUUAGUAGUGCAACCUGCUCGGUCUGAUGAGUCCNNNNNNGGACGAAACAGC

Variants of: B1
Assay protocol: normalized RNA/DNA level without ligand (relative to sTRSVctl = 100) (log10 (% of sTRSVctl)); HEK293T; ligand: cyclic di-GMP (c-di-GMP-II aptamer); higher = less ribozyme self-cleavage, higher mRNA level
Experimental context: reporter: mCherry (pCS4076), ligand present: no
Readings of normalized RNA/DNA level without ligand (log10) for the listed variants
Write no unit; give the number alone.

Solved cases (6 shown):
{"columns": ["Mutation notation", "Recorded result"],
 "data": [
  ["AGGGAA", 1.41],
  ["GCGCAA", 1.57],
  ["AAUUUA", 1.61],
  ["GUAUCG", 1.63],
  ["CACAUG", 1.72],
  ["UAAUAC", 1.68]
]}

The variant listed as "UCCGAG" has a reported normalized RNA/DNA level without ligand (log10) of 1.64

Looking up "AUUAUU" , I found its normalized RNA/DNA level without ligand (log10) recorded as 1.63

Query "AGGCAC" yields normalized RNA/DNA level without ligand (log10) of 1.71

Recorded result, "GCCAGA" , normalized RNA/DNA level without ligand (log10): 1.48

Summary for this variant, "AUCGUC" : normalized RNA/DNA level without ligand (log10) is 1.85
